- Experiment Summary: NCI Yeast Anticancer Drug Screen. Data for the mlh1 rad18 strain (AID 175)
- Stated Conditions: S. cerevisiae mlh1 rad18 strain growth inhibition; at 5.0 µM (retest, dose inferred, filed as 0.5); active compounds read high
This is part of a sample that, as a whole, favours compounds with a hit. Of some 79,000 tested, about 15% had one in any assay.
Overview of recorded growth inhibition for various compounds
Give just the number in %; leave the unit off.

In the examples that follow, each entry is paired with its recorded growth inhibition.
Identify growth inhibition associated with the compound `C/C=C/C1=C(Cl)C(=O)[C@@H](Cl)[C@@]1(O)C(=O)OC`
85

Identify growth inhibition associated with the compound O=C(CC1C=Cc2ccccc2N1C(=O)c1ccccc1)c1ccccc1 (configuration not stated)
-2

Identify growth inhibition associated with the compound `Cc1nc(C(N)=S)sc1C(=O)C/C(=N/N)C(=O)Nc1cccc(Cl)c1C`
11

Then there is this compound:
Identify growth inhibition associated with the compound `Cn1c2c(c3ccccc31)CCN(CCCN1CCN(c3ccccc3)CC1)C2=O`
41
